Measured fold over rodent (blocking, laminin/FACS) by item
# assay-target: T1, human MCAM (melanoma cell adhesion molecule) expressed on transfected CHO cells (human, UniProt P43121 24-646)
# T1 construct: also called hMCAM; CD146
# T1 chain: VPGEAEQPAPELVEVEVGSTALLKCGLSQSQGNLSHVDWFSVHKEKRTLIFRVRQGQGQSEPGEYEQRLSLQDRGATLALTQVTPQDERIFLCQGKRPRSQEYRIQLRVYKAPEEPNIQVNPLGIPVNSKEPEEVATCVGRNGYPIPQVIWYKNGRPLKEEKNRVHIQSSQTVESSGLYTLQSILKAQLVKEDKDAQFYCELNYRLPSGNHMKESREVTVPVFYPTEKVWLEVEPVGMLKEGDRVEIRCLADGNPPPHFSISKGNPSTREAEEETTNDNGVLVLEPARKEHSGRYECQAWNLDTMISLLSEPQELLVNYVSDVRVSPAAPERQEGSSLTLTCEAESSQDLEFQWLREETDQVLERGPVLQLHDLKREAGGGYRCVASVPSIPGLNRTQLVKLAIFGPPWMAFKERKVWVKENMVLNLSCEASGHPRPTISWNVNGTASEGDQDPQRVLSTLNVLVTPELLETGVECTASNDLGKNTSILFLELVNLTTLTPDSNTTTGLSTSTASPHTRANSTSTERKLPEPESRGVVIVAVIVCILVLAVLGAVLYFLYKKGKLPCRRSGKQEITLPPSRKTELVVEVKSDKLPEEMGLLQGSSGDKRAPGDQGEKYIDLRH
# procedure-details: laminin/FACS on hMCAM CHO cells, competitor laminin 411; Expt#1; vs rodent 1749
# Protocol: Following incubation for 30-45 minutes, the cells were washed and anti-laminin conjugated to AF650 (NovusBio) was added to detect the bound laminin. The cells were run on a flow cytometer to measure the laminin binding signal.
Provide the reading as a plain figure in fold.

Past entries and their recorded results:
{"binder": "chimeric 1749 (antibody, V domains shown) VH: DVKLVESGGDLVKPGGSLKLSCAASGFTFSSYIMSWVRQTPEKRLEWVATISSGGSSTYYPDSVKGRFTISRDNAKNTLYLQMSSLKSEDTAMYYCTRDDDYDVKVFAYWGQGTLVTVSA VL: DIVMSQSPSSLAVSAGEKVTMNCKSSRSLLNSRIRKNYLAWYQQKPGQSPKLLIYWASTRESGVPDRFTGSGSGTDFTLTISSVQAEDLAVYYCKQSYNLLTFGAGTKLELK", "observed-result": 1.4}
{"binder": "mouse anti-human MCAM monoclonal antibody clone 1749.1.3 (antibody, V domains shown, mouse hybridoma antibody; also called rodent 1749; murine 1749.1.3 anti-MCAM antibody) VH: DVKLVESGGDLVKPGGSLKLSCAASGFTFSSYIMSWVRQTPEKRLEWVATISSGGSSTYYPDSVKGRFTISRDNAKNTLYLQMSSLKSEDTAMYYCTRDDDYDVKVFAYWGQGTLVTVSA VL: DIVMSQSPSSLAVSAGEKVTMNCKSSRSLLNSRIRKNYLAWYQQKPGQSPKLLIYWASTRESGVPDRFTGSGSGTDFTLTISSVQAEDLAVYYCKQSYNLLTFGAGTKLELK", "observed-result": 1}

Please examine the following record next.
Using the record for h1749VH2 + h1749VL2 (antibody, human IgG1, V domains shown, also called humanized 1749 conservative VH and VL) VH: EVQLVESGGGLVQPGGSLRLSCAASGFTFSSYIMSWVRQAPGKRLEWVATISSGGSSTYYPDSVKGRFTISRDNAKNSLYLQMNSLRAEDTAVYYCTRDDDYDVKVFAYWGQGTMVTVSS VL: DIVMTQSPDSLAVSLGERATINCKSSRSLLNSRIRKNYLAWYQQKPGQPPKLLIYWASTRESGVPDRFTGSGSGTDFTLTISSLQAEDVAVYYCKQSYNLLTFGQGTKVEIK , report its fold over rodent (blocking, laminin/FACS).
1.8
